Cited source for all entries: ChEMBL document CHEMBL1201862

# Test system: CCRF-CEM
# protocol-details: NCI tumour cell line growth inhibition, 48 h
Activity calls are given as the source filed them. Cut-off read from the data, not from the text of the source: active = GI50 up to about 1.1 µM and inactive = higher.
Entries and their measured GI50 follow.
readout-kind: GI50

compound: O=C(Nc1nc(C23CC4CC(CC(C4)C2)C3)cs1)c1cc2cc([N+](=O)[O-])ccc2oc1=O
observed: 55.6 µM (inactive)
--
compound: CCOC(=O)Oc1ccc2c(c1)c(=O)c1c(NCCN(CC)CC)ccc3nnn2c31
observed: 0.172 µM (active)
--
compound: N=C(N)N/N=C(/CCN1CCCC1)CC(c1ccccc1)c1c(O)c2ccccc2oc1=O (stereo not given)
observed: > 10 µM (inactive)
--
compound: O=C1CC2(CCNCC2)C(=O)N1N1CCCCC1
observed: > 100 µM (inactive)
--
compound: Cn1c(=O)nc2n(-c3ccc(Br)cc3)c3ccccc3nc-2c1=O
observed: 3.81 µM (inactive)
--
compound: Cc1ccc(C)c(C2NC(=O)c3ccccc3N2)c1 (stereo not given)
observed: 0.753 µM (active)
--
compound: COc1cc2c(c(OC)c1OC)-c1ccc(OC)c(=O)cc1[C@@H](N(C)C=O)CC2
observed: 0.0164 µM (active)
--
compound: CC[C@H](CO)Nc1nc(NCc2ccccc2)c2ncn(C(C)C)c2n1 [SELICICLIB]
observed: > 100 µM (inactive)
--
compound: COc1ccc(OC)c2c(C(C)=O)cccc12
observed: > 100 µM (inactive)
--
compound: CC1CC2=C(C1)C(C1(C)C(=O)CC3C(C1=O)C3(C)C)C(C)C2=O (stereo not given)
observed: > 100 µM (inactive)

----------
# System: BT-549
# protocol-details: NCI tumour cell line growth inhibition, 48 h
Calls of active or inactive are those of the source. No stated cut-off is given here; in the data, active = GI50 up to about 1.1 µM and inactive = higher.
Outcomes: 1 for active, 0 for inactive

molecule: Cn1c(=O)n2c(-c3ccccc3)c(-c3ccccc3)n2c1=O
label: 0
//
molecule: Cc1c(C)c2c(c(N)c1C#N)C(=O)N(NC(=S)Nc1ccccc1)C2=O
label: 0
//
molecule: O[C@]12C=C(c3nccc4c3[nH]c3ccccc34)[C@@H]3CCN(CCCC/C=C\CC1)C[C@@]31CC3/C=C\CCCCN3[C@H]12 (stereo partly specified)
label: 1
//
molecule: CO/N=C(\C)c1cccc(Nc2nc3ccccc3c3occc23)c1
label: 0
//
molecule: Cc1ccc(N(C)S(=O)(=O)c2ccccc2)cc1
label: 0
//
molecule: Cc1ccc(C2(c3ccc(Cl)cc3)c3ccccc3C3=NCCN32)cc1 (stereo unspecified)
label: 0
//
molecule: COc1cc(CC(C)NC(C)=O)cc(OC)c1 (stereo unspecified)
label: 0
//
molecule: NCCCN(CCCCN(CCCN)C(=O)OCc1ccccc1)C(=O)OCc1ccccc1
label: 0
//
molecule: O=C(CNc1cccc(Cl)c1)Nn1c(-c2ccccc2)nc2ccccc2c1=O
label: 0
//
molecule: CC(=O)N(C(C)=O)n1c(Cc2ccc(C)cc2)nn(C(C)=O)c1=O
label: 0
//
molecule: O=C1CCCCC(=O)Nc2ccccc2N1
label: 0

----------
# System: 786-0
# protocol-details: NCI tumour cell line growth inhibition, 48 h
Activity calls are given as the source filed them. Cut-off read from the data, not from the text of the source: active = GI50 up to about 1.1 µM and inactive = higher.
Outcomes: true for active, false for inactive

compound: CC1=C(CCC(C)CO)O[C@H]2C[C@H]3[C@@H]4CC[C@H]5C[C@@H](O)CC[C@]5(C)[C@H]4CC(=O)[C@]3(C)[C@@H]12 (stereo partly specified)
label: false

compound: Cc1c(C)c2c(c(N)c1C#N)C(=O)N(NC(=S)Nc1ccccc1)C2=O
label: false

compound: CCOC(=O)C1(Cc2ccc3c(c2)CCC3)Cc2cc3c(cc2C1)CCC3
label: false

compound: O=C1CSC(Cc2nc3ccccc3[nH]2)=N1
label: false

compound: Cc1c2cnccc2c(C)c2c1c1ccccc1n2CCCN
label: true

compound: Cc1[nH]c2ccccc2c1CC/C(=N\Nc1ccccc1)c1ccccc1
label: false

compound: COC(=O)c1ccc(/N=N/N(C)CO)cc1
label: false

compound: CCC(COC(=O)CC[C@@H](NC(=O)C(C)NC(=O)C(C)OC1C(O)C(CO)OC(OCc2ccccc2)C1NC(C)=O)C(N)=O)NC1c2ccccc2Nc2cccc([N+](=O)[O-])c21 (stereo partly specified)
label: false

compound: CCOC(=O)c1nc2cc(N3CCOCC3)c(F)cc2[nH]c1=O
label: false

compound: Fc1ccc(Nc2nc(Cl)c3nc[nH]c3n2)cc1Cl
label: false

compound: O=C(CCc1nnc(S)[nH]1)Nc1cccc(C(F)(F)F)c1
label: false

compound: CC(=O)N(CN1C(=O)CCC1C(=O)O)c1ccccc1Cl (stereo unspecified)
label: false

compound: C=CCNC(=S)N1c2ccccc2NC(=O)CC1C (stereo unspecified)
label: false

compound: COc1ccc(Nc2nc3ccc(C(F)(F)F)cc3nc2C(=O)O)cc1OC
label: false

compound: COc1cc(OC)c(/C=N/N=C(\N)NO)c(OC)c1
label: false

compound: O=S(=O)(NC1OCCCC1I)c1ccccc1 (stereo unspecified)
label: false

compound: O=C1NC(=O)C2=C1CCC2O (stereo unspecified)
label: false

compound: CCOC(=O)c1c(N2CCCC2)ncn(-c2ccccc2)c1=S
label: false

compound: N=c1c2c3n(c4c(=O)n(-c5ccccc5)c(=S)n(c(=O)n1-c1ccccc1)c24)CCCCC3
label: false

compound: CC(C)(C)c1ccc(O)c(CN(Cc2cc(C(C)(C)C)ccc2O)c2ccccc2)c1
label: false

compound: Cc1cc(Cl)ccc1NC(=O)/C(CC(=O)CC(c1ccccc1)c1c(O)c2ccccc2oc1=O)=N\O (stereo unspecified)
label: false
